Each item that follows carries a reported melting point.

Completed entries (count: 3):
chemical-smiles	result
Cc1cnc(CO)c(Cl)c1N1CCOCC1	54 to 55 °C
CN(c1ccccc1)c1ccc(-c2nc(C#N)c(C#N)nc2C#N)cc1	187 °C
COC(=O)CCCc1cc2cc(Cl)ccc2n1S(=O)(=O)c1ccc2nc(C)oc2c1	100 to 110 °C

Now for another entry.
Req: Please give the measured melting point for this compound: "Cc1[nH]c2ncnc(Nc3cccc(Cl)c3)c2c1C"
Resp: 239 to 240 °C

* * *

Each item that follows carries a reported melting point.

chemical-smiles	parameter-measured	result
CS(=O)(=O)c1cccc(NC(=O)c2cnn3c(C(F)(F)F)cc(-c4ccc(C(F)(F)F)c(Cl)c4)nc23)c1	melting point	268 °C
Cc1nnc(-c2ccc3occ(-c4ccccc4C)c3c2)o1	melting point	83 to 84 °C
OCCCCc1cc(-c2ccc(C(F)(F)F)cc2)no1	melting point	68 to 69 °C
O=C(OCC(Cl)(Cl)Cl)n1ccnc1	melting point	80 °C
N#CSc1ccc(NC(=O)OCc2cccnc2)cc1	melting point	188 to 191 °C
Cc1coc(NC(=S)Nc2cc(Cl)ccc2C)n1	melting point	207 to 208 °C
CC(C)(C)C(C)(C)Nc1nc(Cl)nc(NC(C)(C)C(C)(C)C)n1	melting point	129 to 131 °C
CNC(=O)CCn1ncccc1=O	melting point	94 to 96 °C

Req: Please give the measured melting point for this molecule: "CC(C)=CC(=O)N[C@H]1CC[C@H](CCN2CCN(c3nccc4c3CCO4)CC2)CC1"
Resp: 164 °C

Req: Another molecule to check: "CCCCc1nc(SCCF)c(C(=O)O)n1Cc1ccc(-c2ccccc2C(=O)O)cc1"
Resp: 185 to 186 °C

Req: Another molecule to check: "C=CCNc1nc(C)c(C(=O)c2ccc(Cl)c([N+](=O)[O-])c2)s1"
Resp: 154 to 156 °C

Req: Another molecule to check: "O=C(O)CC(Cc1c[nH]c2ccccc12)(C(=O)O)C(=O)O"
Resp: 184 to 185 °C

Req: Another molecule to check: "C=CCc1c(O)ccc2ccc(=O)n(CC=C(C)C)c12"
Resp: 138 to 142 °C

Req: Another molecule to check: "COC(=O)c1c(Cl)cc(C)nc1Oc1c(C)cc(C)cc1C"
Resp: 127 to 128 °C
